The measured values listed here are drawn from patent US20090226437A1.

testTarget: T1, alpha4beta7 on 38C13 alpha4+ murine lymphoma cells transfected with integrin beta7 (38C13beta7 cells) (murine, UniProt Q00651 41-1039; P26011 20-806)
T1 construct: whole, on cells; also called 38C13-beta7 expressing cells; murine beta7-containing receptor
T1 sequence (Q00651 41-1039, chain 1 of 2): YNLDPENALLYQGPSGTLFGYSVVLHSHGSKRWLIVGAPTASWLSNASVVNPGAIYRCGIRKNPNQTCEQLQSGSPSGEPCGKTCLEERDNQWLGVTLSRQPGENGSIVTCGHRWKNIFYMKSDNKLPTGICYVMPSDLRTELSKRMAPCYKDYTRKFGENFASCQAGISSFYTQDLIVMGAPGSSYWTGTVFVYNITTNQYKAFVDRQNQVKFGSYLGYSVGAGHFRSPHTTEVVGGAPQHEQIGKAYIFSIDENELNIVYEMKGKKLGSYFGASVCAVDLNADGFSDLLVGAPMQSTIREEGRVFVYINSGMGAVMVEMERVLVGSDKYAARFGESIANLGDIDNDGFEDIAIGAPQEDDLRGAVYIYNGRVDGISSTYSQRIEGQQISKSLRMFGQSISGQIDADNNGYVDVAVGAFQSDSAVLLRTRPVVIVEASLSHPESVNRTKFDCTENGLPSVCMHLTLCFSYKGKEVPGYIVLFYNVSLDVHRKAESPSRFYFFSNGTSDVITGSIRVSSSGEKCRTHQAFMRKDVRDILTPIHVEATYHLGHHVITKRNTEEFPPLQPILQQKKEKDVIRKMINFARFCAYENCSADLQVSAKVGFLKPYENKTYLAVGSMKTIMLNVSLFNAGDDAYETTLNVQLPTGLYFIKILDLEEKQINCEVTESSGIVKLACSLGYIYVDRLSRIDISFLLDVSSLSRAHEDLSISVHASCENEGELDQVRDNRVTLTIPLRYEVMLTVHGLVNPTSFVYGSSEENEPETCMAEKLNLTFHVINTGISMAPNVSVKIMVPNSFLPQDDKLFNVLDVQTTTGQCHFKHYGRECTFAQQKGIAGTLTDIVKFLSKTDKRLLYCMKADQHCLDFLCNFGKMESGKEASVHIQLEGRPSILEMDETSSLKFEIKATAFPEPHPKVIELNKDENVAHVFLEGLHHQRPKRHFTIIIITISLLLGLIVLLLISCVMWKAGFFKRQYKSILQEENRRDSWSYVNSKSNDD
T1 sequence (P26011 20-806, chain 2 of 2): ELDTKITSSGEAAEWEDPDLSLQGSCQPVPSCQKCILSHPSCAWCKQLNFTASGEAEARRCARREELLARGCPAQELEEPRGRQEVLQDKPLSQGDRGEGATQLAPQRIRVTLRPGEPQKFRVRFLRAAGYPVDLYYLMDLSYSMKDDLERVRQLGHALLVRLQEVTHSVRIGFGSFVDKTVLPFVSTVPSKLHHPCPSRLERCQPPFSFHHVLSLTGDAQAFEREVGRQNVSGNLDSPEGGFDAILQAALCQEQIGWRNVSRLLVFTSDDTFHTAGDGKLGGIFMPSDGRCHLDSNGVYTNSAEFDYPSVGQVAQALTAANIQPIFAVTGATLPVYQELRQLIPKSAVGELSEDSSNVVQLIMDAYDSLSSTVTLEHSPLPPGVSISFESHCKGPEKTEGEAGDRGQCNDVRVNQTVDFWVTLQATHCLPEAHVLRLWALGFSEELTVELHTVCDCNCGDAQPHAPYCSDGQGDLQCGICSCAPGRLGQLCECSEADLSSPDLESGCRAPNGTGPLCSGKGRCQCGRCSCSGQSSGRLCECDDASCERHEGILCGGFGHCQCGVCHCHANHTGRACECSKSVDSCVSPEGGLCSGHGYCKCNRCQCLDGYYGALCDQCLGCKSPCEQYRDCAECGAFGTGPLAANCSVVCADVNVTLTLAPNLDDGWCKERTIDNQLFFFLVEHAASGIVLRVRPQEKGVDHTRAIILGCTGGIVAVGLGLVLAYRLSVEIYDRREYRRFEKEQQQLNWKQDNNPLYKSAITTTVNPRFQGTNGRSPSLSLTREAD
assaySummary: cell adhesion inhibition, 38C13beta7 cells on coated muMAdCAM-1-Ig, experiment 2 of 2
measurementName: IC90 (nM)
Give the number; nM is assumed, so skip it.

Answer with reported IC90 of Variant hu504.5, IgG (antibody, name in Kabat numbering, V domains shown) VH: EVQLVESGGGLVQPGGSLRLSCAASGFFITNNYWGWVRQAPGKGLEWVGYISYSGSTSYNPSLKSRFTISRDTSKNTFYLQMNSLRAEDTAVYYCAMTGSSGYFDFWGQGTLVTVSS VL: DIQMTQSPSSLSASVGDRVTITCRASESVDSLLHWYQQKPGKAPKLLIKYASQSISGVPSRFSGSGSGTDFTLTISSLQPEDFATYYCQQGNSLPNTFGQGTKVEIKR
2.61

For the binder Variant hu504.16, IgG (antibody, name in Kabat numbering, V domains shown) VH: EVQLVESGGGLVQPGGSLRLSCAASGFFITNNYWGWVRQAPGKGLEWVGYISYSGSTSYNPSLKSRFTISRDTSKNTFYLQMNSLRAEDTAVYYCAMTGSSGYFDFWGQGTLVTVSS VL: DIQMTQSPSSLSASVGDRVTITCRASESVDTLLHWYQQKPGKAPKLLIKYASQSISGVPSRFSGSGSGTDFTLTISSLQPEDFATYYCQQGNSLPNTFGQGTKVEIKR , report IC90.
4.08

// Input: Rat Fib504 (antibody FIB504.64 produced by hybridoma ATCC HB-293) (antibody, V domains shown, Whole rat antibody in the cell adhesion assays; also called rat anti-mouse beta7 antibody) VH: EVQLQESGPGLVKPSQSLSLTCSVTGFFITNNYWGWIRKFPGNKMEWMGYISYSGSTSYNPSLKSRISITRDTSKNQFFLQLNSVTTEDTATYYCAMTGSSGYFDFWGPGTMVTVSS VL: DVVMTQSPATLSVTPGERISLSCRASESVDTYLHWYQQKPNESPRLLIKYASQSISGIPSRFSGSGSGTDFTLSINGVELEDLSIYYCQQGNSLPNTFGAGTKLELKR . Output its IC90 only.
1.51

Answer with the recorded IC90 of Variant hu504.32, IgG (antibody, V domains shown, methionine at heavy chain position 94; also called hu504.32M; 504.32M) VH: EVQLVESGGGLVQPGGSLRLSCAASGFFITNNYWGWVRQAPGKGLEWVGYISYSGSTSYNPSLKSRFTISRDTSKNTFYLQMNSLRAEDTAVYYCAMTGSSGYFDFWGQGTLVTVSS VL: DIQMTQSPSSLSASVGDRVTITCRASESVDDLLHWYQQKPGKAPKLLIKYASQSISGVPSRFSGSGSGTDFTLTISSLQPEDFATYYCQQGNSLPNTFGQGTKVEIKR only.
1.51
